Biological target: FGFR3 (Homo sapiens)
Construct: purchased Carna
Test: FGFR biochemical assay (LanthaScreen TR-FRET), FGFR3
Conditions: enzyme pre-incubation 10 minutes (for Example 1); ATP 35 μM; FGFR3 0.1 nM
measure.name: IC50

Input line: Please look up its IC50: C=CC(=O)Nc1ccc(-c2c(-c3ccc(Oc4cccc(C)n4)cc3)c(C(N)=O)n3cccnc23)cc1 [Example 1]
Output line: 10 to 100 nM

###

Target: FGFR3 (Homo sapiens, UniProt P22607)
Construct: purchased Carna
Sequence (P22607 23-806): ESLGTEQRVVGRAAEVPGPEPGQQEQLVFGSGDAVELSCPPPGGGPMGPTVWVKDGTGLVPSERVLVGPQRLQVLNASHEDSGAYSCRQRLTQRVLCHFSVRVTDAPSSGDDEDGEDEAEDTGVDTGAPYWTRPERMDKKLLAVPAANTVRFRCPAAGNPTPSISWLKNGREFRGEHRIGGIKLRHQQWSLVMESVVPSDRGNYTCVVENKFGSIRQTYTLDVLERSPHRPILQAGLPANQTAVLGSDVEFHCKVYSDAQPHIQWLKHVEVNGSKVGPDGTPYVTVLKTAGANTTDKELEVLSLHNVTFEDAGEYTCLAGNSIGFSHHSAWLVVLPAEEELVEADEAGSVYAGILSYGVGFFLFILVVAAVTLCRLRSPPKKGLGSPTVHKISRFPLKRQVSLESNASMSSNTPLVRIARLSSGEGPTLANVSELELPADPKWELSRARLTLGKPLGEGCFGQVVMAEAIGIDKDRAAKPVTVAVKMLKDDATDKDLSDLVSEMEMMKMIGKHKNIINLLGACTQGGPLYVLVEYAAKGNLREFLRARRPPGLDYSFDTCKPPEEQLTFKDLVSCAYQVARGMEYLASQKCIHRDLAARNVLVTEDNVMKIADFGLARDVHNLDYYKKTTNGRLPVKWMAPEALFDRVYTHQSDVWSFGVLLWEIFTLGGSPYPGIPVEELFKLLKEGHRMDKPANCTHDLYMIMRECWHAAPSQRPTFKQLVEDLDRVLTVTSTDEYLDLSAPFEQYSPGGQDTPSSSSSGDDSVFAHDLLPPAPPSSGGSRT
Assay: FGFR biochemical assay (LanthaScreen TR-FRET), FGFR3
Settings: enzyme pre-incubation 60 min; ATP 35 μM; FGFR3 0.1 nM
pIC50: −log10 of the molar value.
measure.name: pIC50

Input line: Please look up its pIC50: Cc1cnc2c(-c3ccc(NC(=O)/C=C/CNC4COC4)cc3)c(-c3ccc(Oc4nccc(C)n4)c(F)c3)c(C(N)=O)n2c1 [Example 22]
Output line: 7.00 to 8.00

Input line: Please look up its pIC50: C=C(F)C(=O)Nc1ccc(-c2c(-c3ccc(Oc4nccc(C)n4)c(F)c3)c(C(N)=O)n3cc(-c4cnn(C)c4)cnc23)cc1 [Example 9]
Output line: 6.00 to 7.00

Input line: Please look up its pIC50: Cc1cnc2c(-c3ccc(NC(=O)/C=C/CN(C)C)cc3)c(-c3ccc(Oc4nccc(C)n4)c(F)c3)c(C(N)=O)n2c1 [Example 14]
Output line: 7.00 to 8.00

Input line: Please look up its pIC50: C=C(F)C(=O)Nc1ccc(-c2c(-c3ccc(Oc4nccc(C)n4)c(F)c3)c(C(N)=O)n3ccccc23)cc1 [Example 12]
Output line: 7.00 to 8.00

Input line: Please look up its pIC50: CC#CC(=O)Nc1ccc(-c2c(-c3ccc(Oc4nccc(C)n4)c(F)c3)c(C(N)=O)n3cc(C)cnc23)cc1 [Example 13]
Output line: 7.00 to 8.00

Input line: Please look up its pIC50: C=C(F)C(=O)N1CCc2cc(-c3c(-c4ccc(Oc5nccc(C)n5)c(F)c4)c(C(N)=O)n4cc(C)cnc34)ccc21 [Example 17]
Output line: > 8.00

Input line: Please look up its pIC50: C=C(F)C(=O)Nc1ccc(-c2c(-c3ccc(Oc4nccc(C)n4)c(F)c3)c(C(N)=O)n3cc(C)cnc23)cc1 [Example 2]
Output line: 7.00 to 8.00

###

Target: FGFR1 (Homo sapiens, UniProt P11362)
Construct: purchased Carna
Sequence (P11362 22-822): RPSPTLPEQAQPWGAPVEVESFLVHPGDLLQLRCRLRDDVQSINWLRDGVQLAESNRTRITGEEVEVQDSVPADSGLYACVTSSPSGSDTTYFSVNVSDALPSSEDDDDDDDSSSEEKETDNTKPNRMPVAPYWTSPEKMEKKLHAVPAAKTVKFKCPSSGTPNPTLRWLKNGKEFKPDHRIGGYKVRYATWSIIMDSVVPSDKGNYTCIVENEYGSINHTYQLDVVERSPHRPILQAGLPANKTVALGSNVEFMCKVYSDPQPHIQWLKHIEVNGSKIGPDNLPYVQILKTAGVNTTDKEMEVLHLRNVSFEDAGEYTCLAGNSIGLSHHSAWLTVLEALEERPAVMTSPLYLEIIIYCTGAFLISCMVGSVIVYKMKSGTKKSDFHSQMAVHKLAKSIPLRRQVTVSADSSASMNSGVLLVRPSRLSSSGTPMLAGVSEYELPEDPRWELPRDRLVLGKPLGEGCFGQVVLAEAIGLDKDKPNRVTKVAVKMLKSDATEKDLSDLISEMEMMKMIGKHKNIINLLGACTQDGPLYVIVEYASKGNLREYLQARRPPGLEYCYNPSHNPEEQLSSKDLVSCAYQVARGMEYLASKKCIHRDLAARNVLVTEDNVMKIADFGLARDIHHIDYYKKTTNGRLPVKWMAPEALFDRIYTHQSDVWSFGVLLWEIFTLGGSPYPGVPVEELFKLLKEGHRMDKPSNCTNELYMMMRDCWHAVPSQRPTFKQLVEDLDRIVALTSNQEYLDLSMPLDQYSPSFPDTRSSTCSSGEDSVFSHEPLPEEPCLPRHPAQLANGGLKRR
Assay: FGFR biochemical assay (LanthaScreen TR-FRET), FGFR1
Conditions: enzyme pre-incubation 60 min; ATP 28 μM; FGFR1 0.01 nM
For each record, write down the corresponding IC50.

Input line: Please look up its IC50: C=C(F)C(=O)Nc1ccc(-c2c(-c3ccc(Oc4nccc(C)n4)c(F)c3)c(C(N)=O)n3cc(N4CCOCC4)cnc23)cc1
Output line: > 1 µM

Input line: Please look up its IC50: C=C(F)C(=O)Nc1ccc(-c2c(-c3ccc(Oc4nccc(C)n4)c(F)c3)c(C(N)=O)n3cc(CC)cnc23)cc1
Output line: > 1 µM

Input line: Please look up its IC50: C=C(F)C(=O)Nc1ccc(-c2c(-c3ccc(Oc4nccc(C)n4)c(F)c3)c(C(N)=O)n3cccnc23)cc1
Output line: 0.1 to 1 µM

Input line: Please look up its IC50: C=C(F)C(=O)Nc1ccc(-c2c(-c3ccc(Oc4nccc(C)n4)c(F)c3)c(C(N)=O)n3cc(C)cnc23)cc1
Output line: 0.1 to 1 µM

###

Target: FGFR2 (Homo sapiens)
Construct: purchased Carna
Assay: FGFR biochemical assay (LanthaScreen TR-FRET), FGFR2
Conditions: enzyme pre-incubation 60 min; ATP 22 μM; FGFR2 0.01 nM
pIC50: −log10 of the molar value.
For each record, write down the corresponding pIC50.

Input line: Please look up its pIC50: C=C(F)C(=O)Nc1ccc(-c2c(-c3ccc(Oc4nccc(C)n4)c(F)c3)c(C(N)=O)n3ccc(C)nc23)cc1
Output line: 7.00 to 8.00

Input line: Please look up its pIC50: C=C(F)C(=O)Nc1ccc(-c2c(-c3ccc(Oc4nccc(C)n4)c(F)c3)c(C(N)=O)n3cc(C)ncc23)cc1
Output line: > 8.00

Input line: Please look up its pIC50: C=C(F)C(=O)N1CCc2cc(-c3c(-c4ccc(Oc5nccc(C)n5)c(F)c4)c(C(N)=O)n4cc(C)cnc34)ccc21
Output line: > 8.00

Input line: Please look up its pIC50: C=C(F)C(=O)Nc1ccc(-c2c(-c3ccc(Oc4nccc(C)n4)cc3)c(C(N)=O)n3cc(C)cnc23)cc1
Output line: > 8.00

###

Target: FGFR2 (Homo sapiens, UniProt P21802)
Construct: purchased Carna
Sequence (P21802 22-821): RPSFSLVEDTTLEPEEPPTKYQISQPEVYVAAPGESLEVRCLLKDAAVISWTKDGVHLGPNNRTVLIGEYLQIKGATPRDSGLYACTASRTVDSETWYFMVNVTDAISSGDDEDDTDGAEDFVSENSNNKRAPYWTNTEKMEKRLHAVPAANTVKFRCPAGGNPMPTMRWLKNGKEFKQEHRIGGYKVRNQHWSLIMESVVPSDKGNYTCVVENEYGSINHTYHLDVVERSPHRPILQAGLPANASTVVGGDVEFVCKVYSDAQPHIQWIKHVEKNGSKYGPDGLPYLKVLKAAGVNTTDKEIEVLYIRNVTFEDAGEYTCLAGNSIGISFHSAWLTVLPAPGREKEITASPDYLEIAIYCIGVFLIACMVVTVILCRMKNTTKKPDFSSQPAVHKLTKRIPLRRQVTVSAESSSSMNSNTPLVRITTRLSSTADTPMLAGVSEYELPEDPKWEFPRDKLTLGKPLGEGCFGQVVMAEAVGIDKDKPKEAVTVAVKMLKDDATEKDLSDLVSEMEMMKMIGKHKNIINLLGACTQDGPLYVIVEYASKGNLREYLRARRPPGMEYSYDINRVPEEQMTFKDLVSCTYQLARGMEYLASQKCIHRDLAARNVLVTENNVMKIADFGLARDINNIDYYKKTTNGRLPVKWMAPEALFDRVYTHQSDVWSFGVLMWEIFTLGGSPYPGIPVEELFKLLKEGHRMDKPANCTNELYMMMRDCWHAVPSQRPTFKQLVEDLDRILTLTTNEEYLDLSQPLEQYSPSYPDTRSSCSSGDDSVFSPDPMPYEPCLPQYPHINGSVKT
Experiment: FGFR biochemical assay (LanthaScreen TR-FRET), FGFR2
Settings: enzyme pre-incubation 60 min; ATP 22 μM; FGFR2 0.01 nM
pIC50: −log10 of the molar value.
measure.name: pIC50

Input line: FGFR2 (Homo sapiens, UniProt P21802) / pIC50 / C=C(F)C(=O)Nc1ccc(-c2c(-c3ccc(Oc4nccc(C)n4)c(F)c3)c(C(N)=O)n3cc(C4CC4)cnc23)cc1 : value?
Output line: 7.00 to 8.00

Input line: FGFR2 (Homo sapiens, UniProt P21802) / pIC50 / C=C(F)C(=O)Nc1ccc(-c2c(-c3ccc(Oc4nccc(C)n4)c(F)c3)c(C(N)=O)n3cccnc23)cc1 : value?
Output line: > 8.00

Input line: FGFR2 (Homo sapiens, UniProt P21802) / pIC50 / Cc1cnc2c(-c3ccc(NC(=O)/C=C/CN(C)C)cc3)c(-c3ccc(Oc4nccc(C)n4)c(F)c3)c(C(N)=O)n2c1 : value?
Output line: > 8.00

Input line: FGFR2 (Homo sapiens, UniProt P21802) / pIC50 / C=C(F)C(=O)Nc1ccc(-c2c(-c3ccc(Oc4nccc(C)n4)cc3)c(C(N)=O)n3cc(N4CCN(C)CC4)cnc23)cc1 : value?
Output line: > 8.00

###

Biological target: FGFR3 (Homo sapiens, UniProt P22607)
Construct: purchased Carna
Test: FGFR biochemical assay (LanthaScreen TR-FRET), FGFR3
Conditions: enzyme pre-incubation 60 min; ATP 35 μM; FGFR3 0.1 nM
For each record, write down the corresponding IC50.

Input line: Please look up its IC50: C=C(C)C(=O)Nc1ccc(-c2c(-c3ccc(Oc4nccc(C)n4)c(F)c3)c(C(N)=O)n3cc(C)cnc23)c(F)c1 [Example 19]
Output line: 100 to 1000 nM

Input line: Please look up its IC50: C=C(F)C(=O)Nc1ccc(-c2c(-c3ccc(Oc4nccc(C)n4)c(F)c3)c(C(N)=O)n3cc(N4CCOCC4)cnc23)cc1 [Example 8]
Output line: 10 to 100 nM

Input line: Please look up its IC50: C=C(F)C(=O)Nc1ccc(-c2c(-c3ccc(Oc4nccc(C)n4)c(F)c3)c(C(N)=O)n3ccc(C)nc23)cc1 [Example 4]
Output line: 100 to 1000 nM

Input line: Please look up its IC50: C=C(F)C(=O)Nc1ccc(-c2c(-c3ccc(Oc4nccc(C)n4)c(F)c3)c(C(N)=O)n3cc(CC)cnc23)cc1 [Example 7]
Output line: 100 to 1000 nM

Input line: Please look up its IC50: Cc1cnc2c(-c3ccc(NC(=O)/C=C/CN4CC(O)C4)cc3)c(-c3ccc(Oc4nccc(C)n4)c(F)c3)c(C(N)=O)n2c1 [Example 23]
Output line: < 10 nM

Input line: Please look up its IC50: C=C(F)C(=O)Nc1ccc(-c2c(-c3ccc(Oc4nccc(C)n4)c(F)c3)c(C(N)=O)n3cc(C4CC4)cnc23)cc1 [Example 5]
Output line: 10 to 100 nM

Input line: Please look up its IC50: C=C(F)C(=O)Nc1ccc(-c2c(-c3ccc(Oc4nccc(C)n4)cc3)c(C(N)=O)n3cc(C)cnc23)cc1 [Example 20]
Output line: 10 to 100 nM

Input line: Please look up its IC50: C=C(F)C(=O)Nc1ccc(-c2c(-c3ccc(Oc4nccc(C)n4)cc3Cl)c(C(N)=O)n3cc(C)cnc23)cc1 [Example 15]
Output line: 100 to 1000 nM

Input line: Please look up its IC50: C=C(F)C(=O)Nc1ccc(-c2c(-c3ccc(Oc4nccc(C)n4)c(F)c3)c(C(N)=O)n3cc(C#CC)cnc23)cc1 [Example 10]
Output line: 100 to 1000 nM

Input line: Please look up its IC50: C=C(F)C(=O)Nc1ccc(-c2c(-c3ccc(Oc4nccc(C)n4)c(F)c3)c(C(N)=O)n3cccnc23)cc1 [Example 11]
Output line: 10 to 100 nM

Input line: Please look up its IC50: C=C(F)C(=O)Nc1ccc(-c2c(-c3ccc(Oc4nccc(C)n4)c(F)c3)c(C(N)=O)n3cc(Cl)cnc23)cc1 [Example 16]
Output line: 100 to 1000 nM

Input line: Please look up its IC50: C=C(F)C(=O)Nc1ccc(-c2c(-c3ccc(Oc4nccc(C)n4)c(F)c3)c(C(N)=O)n3cc(C)cnc23)c(F)c1 [Example 18]
Output line: < 10 nM

Input line: Please look up its IC50: C=C(F)C(=O)Nc1ccc(-c2c(-c3ccc(Oc4nccc(C)n4)cc3)c(C(N)=O)n3cc(N4CCN(C)CC4)cnc23)cc1 [Example 6]
Output line: 10 to 100 nM

Input line: Please look up its IC50: Cc1cnc2c(-c3ccc(NC(=O)/C(F)=C/CN(C)C)cc3)c(-c3ccc(Oc4nccc(C)n4)c(F)c3)c(C(N)=O)n2c1 [Example 21]
Output line: 10 to 100 nM

Input line: Please look up its IC50: C=C(F)C(=O)Nc1ccc(-c2c(-c3ccc(Oc4nccc(C)n4)c(F)c3)c(C(N)=O)n3cc(C)ncc23)cc1 [Example 3]
Output line: 10 to 100 nM
